Data provenance: PubChem BioAssay AID1918956

Tested on: OVCAR-5 complex spheroids, viability
protocol.summary: Anticancer human tumor OVCAR-5 cell line growth inhibition;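 note: spheroids exposed to agents for seven days; 100% = DMSO vehicle control wells viability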
conditions: second compound 0.316 µM; first compound 10 µM; active compounds read low
Text: Multicellular complex tumor spheroid response to LSD1 Inhibitor Iadademstat in combination with a variety of drugs and investigational agents in selected tumor cell lines The current study was undertaken to assess response to LSD1 inhibitors in combination with standard-of-care drugs and investigational agents in solid tumor complex spheroid models as well as in the K-562 leukemia. […] Compounds. […] If the clinical Cmax for an agent had not been determined, the highest concentration tested was 10 microM. […]
// assign YES if viability, T/C falls strictly below 70%, else NO (ties count as NO)

Is 70% strictly greater than the molecule's reported viability, T/C? molecule: CC1COCCN1c1cc(C2(S(C)(=N)=O)CC2)nc(-c2ccnc3[nH]ccc23)n1 (configuration not stated) + NC1CCC(NC2CC2c2ccccc2)CC1
YES

Is 70% strictly greater than the molecule's reported viability, T/C? molecule: O=C(c1cc(Cc2n[nH]c(=O)c3ccccc23)ccc1F)N1CCN(C(=O)C2CC2)CC1 + NC1CCC(NC2CC2c2ccccc2)CC1
NO

Is 70% strictly greater than the molecule's reported viability, T/C? molecule: O=C(c1cc(Cc2n[nH]c(=O)c3ccccc23)ccc1F)N1CCN(C(=O)C2CC2)CC1 + NC1CC1c1ccc(-c2cccc(O)c2)cc1
NO

Is 70% strictly greater than the molecule's reported viability, T/C? molecule: COc1ccc([C@@H](O)c2cc(-c3ncnc4cc(N5CCOCC5)ccc34)c(F)cc2Cl)nn1 + NC1CC1c1ccc(-c2cccc(O)c2)cc1
YES

Is 70% strictly greater than the molecule's reported viability, T/C? molecule: COc1ccc([C@@H](O)c2cc(-c3ncnc4cc(N5CCOCC5)ccc34)c(F)cc2Cl)nn1 + NC1CCC(NC2CC2c2ccccc2)CC1
YES

Is 70% strictly greater than the molecule's reported viability, T/C? molecule: CC(C)c1c(-c2ccccc2)nc2c(C#N)c[nH]n2c1=O + NC1CC1c1ccc(-c2cccc(O)c2)cc1
NO

Is 70% strictly greater than the molecule's reported viability, T/C? molecule: CC1(C)CCC(CN2CCN(c3ccc(C(=O)NS(=O)(=O)c4ccc(NCC5CCOCC5)c([N+](=O)[O-])c4)c(Oc4cnc5[nH]ccc5c4)c3)CC2)=C(c2ccc(Cl)cc2)C1 + NC1CCC(NC2CC2c2ccccc2)CC1
YES

====

Test system: OVCAR-5 complex spheroids, viability
protocol.summary: Anticancer human tumor OVCAR-5 cell line growth inhibition;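 note: spheroids exposed to agents for seven days; 100% = DMSO vehicle control wells viability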
conditions: second compound 10 µM; first compound 0.0316 µM; active compounds read low
endpoint: viability, T/C (%)
Answer format: numeric, % implied, no suffix.

# lookup: viability, T/C of CC(C)CC(NC(=O)C(Cc1ccccc1)NC(=O)c1cnccn1)B(O)O (configuration not stated) + NC1CCC(NC2CC2c2ccccc2)CC1
10.2

# lookup: viability, T/C of O=C(C=Cn1cnc(-c2cc(C(F)(F)F)cc(C(F)(F)F)c2)n1)NNc1cnccn1 + NC1CCC(NC2CC2c2ccccc2)CC1
70.6

# lookup: viability, T/C of COc1ccc([C@@H](O)c2cc(-c3ncnc4cc(N5CCOCC5)ccc34)c(F)cc2Cl)nn1 + NC1CCC(NC2CC2c2ccccc2)CC1
82.5

# lookup: viability, T/C of CC(C)CC(NC(=O)CNC(=O)c1cc(Cl)ccc1Cl)B1OC(=O)CC(CC(=O)O)(C(=O)O)O1 (configuration not stated) + NC1CCC(NC2CC2c2ccccc2)CC1
76.5

# lookup: viability, T/C of CC(C)CC(NC(=O)CNC(=O)c1cc(Cl)ccc1Cl)B1OC(=O)CC(CC(=O)O)(C(=O)O)O1 (configuration not stated) + NC1CC1c1ccc(-c2cccc(O)c2)cc1
64.8

# lookup: viability, T/C of Cn1ncnc1C1c2n[nH]c(=O)c3cc(F)cc(c23)NC1c1ccc(F)cc1 (configuration not stated) + NC1CC1c1ccc(-c2cccc(O)c2)cc1
72.6

# lookup: viability, T/C of CC1COCCN1c1cc(C2(S(C)(=N)=O)CC2)nc(-c2ccnc3[nH]ccc23)n1 (configuration not stated) + NC1CCC(NC2CC2c2ccccc2)CC1
84
